- tested_target: E3 ubiquitin-protein ligase XIAP (Homo sapiens) (UniProt P98170)
- Sequence (P98170 whole entry, looked up): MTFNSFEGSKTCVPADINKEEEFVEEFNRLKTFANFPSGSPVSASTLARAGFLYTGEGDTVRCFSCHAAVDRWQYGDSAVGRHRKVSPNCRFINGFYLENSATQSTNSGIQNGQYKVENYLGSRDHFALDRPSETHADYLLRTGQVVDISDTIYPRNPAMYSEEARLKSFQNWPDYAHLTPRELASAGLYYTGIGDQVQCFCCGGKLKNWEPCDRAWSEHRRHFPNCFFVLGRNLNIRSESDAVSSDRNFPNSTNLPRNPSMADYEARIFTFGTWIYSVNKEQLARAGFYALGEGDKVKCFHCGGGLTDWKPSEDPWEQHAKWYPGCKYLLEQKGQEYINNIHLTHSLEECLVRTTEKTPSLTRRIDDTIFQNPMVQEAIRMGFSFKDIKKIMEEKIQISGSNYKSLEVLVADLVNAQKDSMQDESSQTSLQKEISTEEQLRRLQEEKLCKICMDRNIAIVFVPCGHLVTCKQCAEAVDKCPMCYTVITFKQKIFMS
- test: small molecules binding XIAP protein – biophysical, small-molecule microarray, fluorescence 635 nm, primary screen (AID 1181);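 also: score merges 667 nm emission and signal to noise over triplicate slides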
- condition_details: higher = more signal
Kindly supply the reported composite z-score values for the records listed here.
Give bare numbers.

molecule: CCCC=C(CCC)[C@@H](NS(=O)(=O)c1ccccc1)c1ccc(C(F)(F)F)cc1
composite z-score: 0.0039

molecule: COC(=O)[C@@]1(Cc2ccc(F)cc2)[C@H]2c3cc(C(=O)N(C)C)n(CCSCCO)c3C[C@H]2CN1C(=O)c1ccccc1
composite z-score: -0.234

molecule: COC(=O)[C@@]1(Cc2ccc(F)cc2)[C@H]2c3cc(C(=O)N4CCCC4)n(Cc4ccccc4)c3C[C@H]2CN1C(=O)c1ccccc1
composite z-score: -0.146

molecule: CC(C)(C)OC(=O)CC[C@]1(C(=O)N2CCCCC2)N=C(c2ccc(OCCCO)cc2)O[C@H]1c1ccccc1CN=[N+]=[N-]
composite z-score: 0.0346

molecule: COCCCNC(=O)[C@@]1(Cc2ccccc2N=[N+]=[N-])N=C(c2ccc(OCCCO)cc2)O[C@H]1c1ccccc1CN=[N+]=[N-]
composite z-score: -0.183

For each entry beneath this line, provide reported composite z-score.
1. C=CCC(OC(C)=O)[C@@H]1[C@@H](N(Cc2ccc(-c3ccccc3)cc2)C(=O)Cc2ccc(OC)cc2)c2cc(OCCCO)ccc2N1C(=O)c1ccc(-c2ccccc2)cc1 (some centres not stated)
2. Cc1ccc(F)cc1S(=O)(=O)N[C@@H]1CCN(C(=O)c2ccc(OC(C)C)cc2)C1

Output line:
0.233
0.0336

----------
- tested_target: Alpha-bungarotoxin (Bungarus multicinctus)
- test: compounds binding labelled alpha-BTX control protein – biochemical, small-molecule microarray, Alexa647 label, 635/667 nm fluorescence, artefact control for SMM control protein annotation, profiling panel (AID 1117)
- condition_details: alpha-BTX-A647 binding fluorescence, higher = more signal
reported_property: composite z-score
Give bare numbers.

compound: C=CCC(OC(C)=O)[C@@H]1[C@@H](N(Cc2cc3ccccc3o2)C(=O)Cc2ccc(OC)cc2)c2cc(OCCCO)ccc2N1C(=O)c1ccc(-c2ccccc2)cc1 (stereo partly specified)
composite z-score: 0.0856
--
compound: COc1ccc(C#Cc2ccc3c(c2)[C@]2(C(=O)N3)[C@H](C(=O)O)[C@H]3C(=O)O[C@H](c4ccccc4)[C@H](c4ccccc4)N3[C@@H]2c2ccc(OCCO)cc2)cc1
composite z-score: 2.28
--
compound: C[C@]12C(=O)N(CCCO)[C@@H]3C(=O)N(c4ccc(Cl)cc4)CC=CC31O[C@@H]1/C=C\CCCOC(=O)C12 (stereo partly specified)
composite z-score: -0.777
--
compound: COc1cccc(C[C@H]2C[C@@H](CO[Si](C(C)C)(C(C)C)C(C)C)N3C(=O)[C@]4(C(C)=O)O[C@]23[C@H]2C(=O)N(C)C(=O)[C@H]24)c1
composite z-score: 0.866
--
compound: COCCOC(=O)N1C(=O)[C@@]2(c3cc(C#CC4(O)CCCCCC4)ccc31)[C@H](C(=O)N1CCN(c3ncccn3)CC1)[C@H]1C(=O)O[C@H](c3ccccc3)[C@H](c3ccccc3)N1[C@@H]2c1ccc(O)cc1
composite z-score: 1.61

Now take the following compound into account.
For CC(=O)NCCCC[C@@H]1NC(=O)[C@H]2C[C@@H](C(=O)NCCCCCN)[C@@H](c3cccc(OCCO)c3)N2C1=O the compound record lists composite z-score as 1.82
